# measurement description: chemical recovery from spiked human plasma; higher = better extraction
# particulars: pooled human plasma; extraction method: SPE only (HLB 96-well)
parameter: chemical recovery
Answer with the figure and its unit, nothing else.

INSERT INTO assay_data (compound, parameter, val) VALUES
  ('O=C(O)CCCCCCC(=O)O', 'chemical recovery', '82.2%'),
  ('CN(C)C(=O)Nc1ccc(Cl)cc1', 'chemical recovery', '49.6%'),
  ('Nc1cccc2ccccc12', 'chemical recovery', '16.7%'),
  ('O=C(O)c1cc(C(=O)O)cc([N+](=O)[O-])c1', 'chemical recovery', '50.5%'),
  ('Nc1ccc2nc3c(N)cccc3nc2c1', 'chemical recovery', '52.7%');

Documented chemical recovery of COc1nc(C)nc(NC(=O)NS(=O)(=O)c2ccccc2CCC(F)(F)F)n1 : 37.9%

response.value for CC(=O)Nc1c(C)n(C)n(-c2ccccc2)c1=O [N-Acetyl-4-aminoantipyrine] (field: chemical recovery) = 43.1%

* * *

# measurement description: chemical recovery from spiked human plasma; higher = better extraction
# particulars: pooled human plasma; extraction method: PES+SPE (3 d PDMS equilibration then HLB SPE)
parameter: chemical recovery (%)
Write the number in % without appending the unit.

INSERT INTO assay_data (molecule, parameter, val) VALUES
  ('Oc1cc(Cl)c(Cl)c(Cl)c1', 'chemical recovery', 58.9);

Value of measured chemical recovery for the entry Cc1cnc2ccc3c(nc(N)n3C)c2n1 [2-Amino-3,8-dimethylimidazo-[4,5-f]quinoxaline (MeIQx)] : 48.7

chemical recovery measured on Cn1cnc2c1c(=O)n(CCCC(=O)O)c(=O)n2C = 72.3

chemical recovery reading for Oc1cc(O)c2c(c1)O[C@H](c1ccc(O)c(O)c1)[C@H](O)C2 [(-)-Epicatechin] : 1.62

Per the records, this molecule ( O=[N+]([O-])/N=C1\NCCN1Cc1ccc(Cl)nc1 ) has chemical recovery equal to 47.6

The molecule listed as O=C(Nc1ccccc1)Nc1ccccc1 has a reported chemical recovery of 65.9

Kindly note the recorded chemical recovery for CCNc1nc(Cl)nc(NC(C)(C)C)n1 , which is 64.8

Sample C=CCC1(C(C)CCC)C(=O)NC(=O)NC1=O (stereo not given) ; chemical recovery observed: 53.8

* * *

# measurement description: chemical recovery by SPE of plasma after PDMS sampling; higher = better extraction
# particulars: pooled human plasma; extraction method: HLB SPE of plasma after PES; equilibration time (d): 3
parameter: chemical recovery by SPE of plasma (%)
The figure you give is taken to be in %; do not add the unit.

These solved cases illustrate the format of a correct answer.
INSERT INTO measurements (smiles_string, parameter, val) VALUES
  ('Clc1ccc(Cl)c(-c2cccc(Cl)c2Cl)c1', 'chemical recovery by SPE of plasma', 1.34),
  ('Cc1ccc2[nH]nnc2c1', 'chemical recovery by SPE of plasma', 42.2);

Turning to the following molecule.
Query O=C(O)c1ccc(Cl)cc1Cl yields chemical recovery by SPE of plasma of 46.9

* * *

# measurement description: chemical recovery from spiked human plasma; higher = better extraction
# particulars: pooled human plasma; extraction method: SPE only (HLB 96-well), PES comparison experiment
Each item that follows carries a reported chemical recovery.

Documented chemical recovery of Clc1cccc(Cl)c1NC1=NCCN1 : 39.6%

Value of measured chemical recovery for the entry CCCCOCCOCCOCc1cc2c(cc1CCC)OCO2 [Piperonyl butoxide] : 39.5%

Documented chemical recovery of Nc1ccc(S(=O)(=O)Nc2nccs2)cc1 : 51.1%

Just so you know, measured chemical recovery for CCNc1ccc2c(C)cc(=O)oc2c1 [7-(Ethylamino)-4-methylcoumarin] came out at 50%

chemical recovery in this record for NC(=O)Nc1ccc(Cl)c(Cl)c1 : 49.3%

Kindly note the recorded chemical recovery for CCCC1O[C@@H]2C[C@H]3[C@@H]4CCC5=CC(=O)C=C[C@]5(C)[C@H]4[C@@H](O)C[C@]3(C)[C@]2(C(=O)CO)O1 (stereo partly specified) [Budesonide] , which is 50.5%

Short answer for CCNC(=O)[C@@H](C)OC(=O)Nc1ccccc1 [Carbetamide] : chemical recovery was 53.1%

GET /value?item= CC1CN(C2CCCCCCCCCCC2)CC(C)O1 (stereo unspecified) &field=chemical recovery returns 44.3%

# compound O=c1cc(O)c2ccccc2o1 [4-Hydroxycoumarin] ; its chemical recovery = 13.2%

Data point: Fc1ccc(Oc2ccnc3cc(Cl)cc(Cl)c23)cc1 ; chemical recovery = 31.6%

Input NS(=O)(=O)c1cc(C(=O)O)c(NCc2ccco2)cc1Cl [Furosemide] . Output chemical recovery: 50%

The reported chemical recovery of the compound CCCSc1ccc2[nH]c(NC(=O)OC)nc2c1 was 37.8%

This collection of values is drawn from the supplement of paper PMC10702517.
